B1: Kinesin-like protein KIF16B, residues 1213 to 1273; numbered along this chain, Q96L93 (parent)
chain: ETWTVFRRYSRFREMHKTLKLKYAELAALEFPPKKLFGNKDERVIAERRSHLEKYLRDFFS

variants of: B1; experiment: abundance fitness (aPCA) (normalised: wild type 0, dead -1); higher = more abundant; growth selection in yeast, the domain comes from the species named; details: Homo sapiens
I would appreciate it if you labelled entries Criterion met when abundance fitness is -0.3 or higher, otherwise Criterion not met.

[
  {
    "variant-code": "H16Q",
    "assigned-label": "Criterion met"
  },
  {
    "variant-code": "T4D",
    "assigned-label": "Criterion met"
  },
  {
    "variant-code": "L19T",
    "assigned-label": "Criterion not met"
  },
  {
    "variant-code": "R13N",
    "assigned-label": "Criterion met"
  }
]

# check: abundance fitness of M15P is greater than or equal to -0.3 Criterion not met

Is reported abundance fitness greater than or equal to -0.3 here: L19G Criterion not met

// inclusive: abundance fitness at least -0.3? input: R11C Criterion met

Determine whether this variant has abundance fitness no lower than -0.3: H16K Criterion met

Is abundance fitness at least -0.3? Consider E25T Criterion not met

hey, is abundance fitness for this one >= -0.3? S50T Criterion met

Dear colleague, could you confirm whether E47C has abundance fitness at or above -0.3? Criterion met
